- system_tested: PTHR1 receptor
- Sequence (P25961 whole entry): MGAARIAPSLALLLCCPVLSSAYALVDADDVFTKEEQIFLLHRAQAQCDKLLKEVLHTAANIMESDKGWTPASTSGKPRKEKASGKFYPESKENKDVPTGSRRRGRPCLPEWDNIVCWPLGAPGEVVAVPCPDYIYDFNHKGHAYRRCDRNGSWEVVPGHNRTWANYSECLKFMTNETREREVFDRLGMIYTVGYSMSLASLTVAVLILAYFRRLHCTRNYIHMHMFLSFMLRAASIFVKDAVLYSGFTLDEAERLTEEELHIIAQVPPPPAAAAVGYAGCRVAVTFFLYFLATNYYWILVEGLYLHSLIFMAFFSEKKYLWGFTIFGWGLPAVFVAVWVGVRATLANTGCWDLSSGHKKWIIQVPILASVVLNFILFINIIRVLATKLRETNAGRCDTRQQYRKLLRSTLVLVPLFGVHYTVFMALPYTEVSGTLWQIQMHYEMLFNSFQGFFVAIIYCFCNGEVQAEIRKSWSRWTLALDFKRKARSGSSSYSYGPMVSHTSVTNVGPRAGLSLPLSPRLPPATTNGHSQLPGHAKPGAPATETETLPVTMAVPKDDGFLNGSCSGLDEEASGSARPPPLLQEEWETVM
* marks the point of attachment. Palmitoyl = CCCCCCCCCCCCCCCC(=O)*
Examples of binders with documented Inhibition of Maximal Response follow.
parameter: Inhibition of Maximal Response (%)

1. Palmitoyl-SGRVLATKLR-NH2 (SMILES CCCCCCCCCCCCCCCC(=O)N[C@@H](CO)C(=O)NCC(=O)N[C@@H](CCCNC(=N)N)C(=O)N[C@H](C(=O)N[C@@H](CC(C)C)C(=O)N[C@@H](C)C(=O)N[C@H](C(=O)N[C@@H](CCCCN)C(=O)N[C@@H](CC(C)C)C(=O)N[C@@H](CCCNC(=N)N)C(N)=O)[C@@H](C)O)C(C)C) [Compound 71] :: 13.5
2. Palmitoyl-RRLHSTRNYIHMH-NH2 (SMILES CCCCCCCCCCCCCCCC(=O)N[C@@H](CCCNC(=N)N)C(=O)N[C@@H](CCCNC(=N)N)C(=O)N[C@@H](CC(C)C)C(=O)N[C@@H](Cc1c[nH]cn1)C(=O)N[C@@H](CO)C(=O)N[C@H](C(=O)N[C@@H](CCCNC(=N)N)C(=O)N[C@@H](CC(N)=O)C(=O)N[C@@H](Cc1ccc(O)cc1)C(=O)N[C@H](C(=O)N[C@@H](Cc1c[nH]cn1)C(=O)N[C@@H](CCSC)C(=O)N[C@@H](Cc1c[nH]cn1)C(N)=O)[C@@H](C)CC)[C@@H](C)O) [Compound 1] :: 5.5

Data origin: patent US20110294738A1
